- Measurement target: human CYP11B1 (Homo sapiens, UniProt P15538)
- Construct: expressed in transfected cells; host or cells: V79 MZh11B1 (Chinese hamster lung fibroblasts)
- Sequence (P15538 25-503): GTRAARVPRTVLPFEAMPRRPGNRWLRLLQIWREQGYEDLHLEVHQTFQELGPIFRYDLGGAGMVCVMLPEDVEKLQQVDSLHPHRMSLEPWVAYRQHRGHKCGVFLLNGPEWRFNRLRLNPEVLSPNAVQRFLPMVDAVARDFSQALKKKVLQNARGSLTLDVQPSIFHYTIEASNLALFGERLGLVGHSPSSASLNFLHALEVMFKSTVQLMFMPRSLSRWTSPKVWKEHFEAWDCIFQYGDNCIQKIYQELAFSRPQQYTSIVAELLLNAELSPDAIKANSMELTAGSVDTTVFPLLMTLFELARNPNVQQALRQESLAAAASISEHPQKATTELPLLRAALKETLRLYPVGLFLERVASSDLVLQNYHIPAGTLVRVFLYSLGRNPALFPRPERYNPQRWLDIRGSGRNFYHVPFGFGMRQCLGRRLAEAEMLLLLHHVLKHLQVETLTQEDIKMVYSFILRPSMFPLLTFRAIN
- Protocol details: V79 MZh 11B1 cells inhibition test
- Format: cell-based
- Condition parameters: hamster fibroblasts which express human CYP11B1; deoxycorticosterone substrate 100 nM; read-out: IC50 V79 11B1 hCYP11B1
Counter-ions that a name gives are not always drawn.
This listing pairs compounds with measured IC50.
Give the number; nM is assumed, so skip it.

Please review the following examples before continuing.
- Compound: "COc1ccc2c(c1)CC/C2=C\\c1cccnc1 [Compound 11a, Hydrochloride]"
  IC50, nM: 1450
- Compound: "Fc1ccc2c(c1)CC/C2=C\\c1cncnc1 [Compound 28a, Hydrochloride]"
  IC50, nM: 3180
- Compound: "CCOc1ccc2c(c1)CC/C2=C/c1cccnc1 [Compound 19b, Hydrochloride]"
  IC50, nM: 2700
- Compound: "C(=C1\\CCCc2ccccc21)/c1cccnc1.Cl [Compound 3b, Hydrochloride]"
  IC50, nM: 1420

// switching to the query compound
Query: Requested field: IC50. Item: Fc1ccc2c(c1)CC/C2=C/c1cccnc1 [Compound 5b, Hydrochloride]
Reply: 125

----------
- Measurement target: human CYP11B2 (Homo sapiens)
- Sequence (P19099 25-503): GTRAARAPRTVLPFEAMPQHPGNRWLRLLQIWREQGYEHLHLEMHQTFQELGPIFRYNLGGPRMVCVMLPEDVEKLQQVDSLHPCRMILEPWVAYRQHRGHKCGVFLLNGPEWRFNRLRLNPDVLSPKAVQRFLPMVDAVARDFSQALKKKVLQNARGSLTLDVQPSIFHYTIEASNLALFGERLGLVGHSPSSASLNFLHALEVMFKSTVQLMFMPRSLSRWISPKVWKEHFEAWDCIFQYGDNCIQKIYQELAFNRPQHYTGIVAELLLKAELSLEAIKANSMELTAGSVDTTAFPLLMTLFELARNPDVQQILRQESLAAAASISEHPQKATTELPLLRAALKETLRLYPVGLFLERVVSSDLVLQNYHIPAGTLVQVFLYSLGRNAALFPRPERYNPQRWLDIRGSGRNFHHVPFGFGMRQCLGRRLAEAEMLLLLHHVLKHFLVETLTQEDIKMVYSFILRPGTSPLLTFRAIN
- Protocol details: Screening test in transgenic fission yeast (S. pombe PE1) expressing human CYP11B2
- Assay type: cell-based
- Design: expressed in transfected cells
- Condition parameters: read-out: % Inhibition human hCYP11B2
Structures can show the parent of a compound that is named as a salt.
Measured attribute: inhibition at 0.5 µM (%)
Give the value, in units of %, as a plain number.

// known answers, use as guide
- Molecule: "Clc1ccc2c(c1)CC/C2=C\\c1ccncc1 [Compound 8a, Hydrochloride]"
  inhibition at 0.5 µM, %: 38
- Molecule: "Fc1ccc2c(c1)CC/C2=C\\c1ccncc1 [Compound 6a, Hydrochloride]"
  inhibition at 0.5 µM, %: 37
- Molecule: "Fc1ccc2c(c1)CC/C2=C/c1ccncc1 [Compound 6b, Hydrochloride]"
  inhibition at 0.5 µM, %: 77
- Molecule: "Fc1ccc2c(c1)CC/C2=C/c1cccnc1 [Compound 5b, Hydrochloride]"
  inhibition at 0.5 µM, %: 89

Query: State the recorded inhibition at 0.5 µM for this entry: Brc1ccc2c(c1)CC/C2=C\c1ccncc1 [Compound 10a, Hydrochloride]
Reply: 17

----------
Catalogue of melting point values
Where a name gives a salt, the structure may show the parent alone.
# unit: °C | format: bare number

Examples with their reported melting point follow.
- Compound: "Cl.Clc1ccc2c(c1)CC/C2=C\\c1cnc[nH]1 [Compound 48a]"
  Unit of measure: "°C"
  melting point: 238
- Compound: "C(=C1c2ccccc2-c2ccccc21)c1cccnc1.Cl"
  Unit of measure: "°C"
  melting point: 241
- Compound: "N#Cc1ccc2c(c1)CCC/C2=C/c1cnc[nH]1.O=C(O)C(=O)O [Compound 44b]"
  Unit of measure: "°C"
  melting point: 206
- Compound: "Fc1ccc2c(c1)CC/C2=C\\c1cnc[nH]1 (as salt: chloride) [Compound 47a]"
  Unit of measure: "°C"
  melting point: 245
- Compound: "C(=C1/CCCc2ccccc21)/c1cccnc1.Cl"
  Unit of measure: "°C"
  melting point: 209

Query: Would you mind telling me what melting point value was observed for Cc1cccc2c1CC/C2=C\c1cccnc1 (as salt: hydrochloride) [Compound 23a] ?
Reply: 231

Query: Input Brc1ccc2c(c1)CC/C2=C\c1ccncc1 (as salt: hydrochloride) [Compound 10a]
Reply: 266

Query: Now the same for Fc1ccc2c(c1)CC/C2=C/c1ccncc1 (as salt: hydrochloride)
Reply: 223

Query: Would you mind doing COc1ccc2c(c1)CC/C2=C/c1cccnc1 (as salt: hydrochloride) [Compound 11b] as well?
Reply: 220

Query: Here is the next compound: Fc1ccc2c(c1)CC/C2=C/c1cccnc1 (as salt: hydrochloride)
Reply: 245

----------
- Measurement target: CYP11B2 in NCI-H295R (Homo sapiens, UniProt P19099)
- Construct: contain 5 steroidogenic CYP450 enzymes, including 17-alpha-hydroxylase, CYP11B1 and CYP11B2; endogenous in cells; host or cells: NCI-H295R
- Protocol details: NCI-H295R cells, CYP11B2 inhibition (substrates corticosterone B or deoxycorticosterone DOC)
- Type: cell-based
- Condition parameters: substrate [14C]deoxycorticosterone (DOC) 500 nM; incubation 3 h; read-out: NCI-H295R CYP11B2 DOC [IC50]
Structures can show the parent of a compound that is named as a salt.
Measured attribute: IC50 (nM)
Give your result in nM as a bare value.

Query: Tell me the measured IC50 of Fc1ccc2c(c1)CC/C2=C/c1cccnc1 [Compound 5b, Hydrochloride] , please.
Reply: 156

----------
- Measurement target: human CYP17 (Homo sapiens, UniProt P05093)
- Construct: made in house; host or cells: E. coli pJL17/OR (membrane fraction)
- Sequence (P05093 1-508): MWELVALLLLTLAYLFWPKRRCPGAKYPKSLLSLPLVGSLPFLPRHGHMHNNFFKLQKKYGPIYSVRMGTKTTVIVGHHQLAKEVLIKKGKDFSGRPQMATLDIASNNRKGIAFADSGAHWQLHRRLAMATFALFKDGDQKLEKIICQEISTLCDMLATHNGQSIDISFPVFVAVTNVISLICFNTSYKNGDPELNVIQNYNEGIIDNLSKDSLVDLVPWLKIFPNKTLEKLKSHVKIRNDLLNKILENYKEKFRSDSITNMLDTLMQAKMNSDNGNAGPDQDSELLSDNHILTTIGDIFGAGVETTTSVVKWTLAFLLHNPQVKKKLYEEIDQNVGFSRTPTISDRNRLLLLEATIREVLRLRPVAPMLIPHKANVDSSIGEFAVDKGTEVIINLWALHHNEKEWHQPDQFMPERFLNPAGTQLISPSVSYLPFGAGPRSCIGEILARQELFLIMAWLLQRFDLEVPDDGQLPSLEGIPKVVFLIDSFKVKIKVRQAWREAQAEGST
- Protocol details: Percent inhibition of CYP17 (membrane fraction of E. coli pJL17/OR)
- Format: biochemical
- Condition parameters: E. coli which expresses human CYP17; 5 mg/ml protein; progesterone substrate 2.5 μM; inhibitor 2.5 μM; read-out: % Inhibition human CYP17
Structures can show the parent of a compound that is named as a salt.
Criterion: inhibition at 2.5 µM meeting or surpassing 20%. Met: 1. Not met: -1.

Check out these entries, answers already filled in.
- Compound: "Clc1cccc2c1CC/C2=C/c1cccnc1 [Compound 25b, Hydrochloride]"
  Group: 1
- Compound: "N#Cc1ccc2c(c1)CCC/C2=C/c1cnc[nH]1.O=C(O)C(=O)O [Compound 44b, oxalate]"
  Group: -1
- Compound: "Brc1ccc2c(c1)CC/C2=C\\c1ccncc1 [Compound 10a, Hydrochloride]"
  Group: 1

Query: Does the compound C(=C1\CCc2ccccc21)/c1cnc[nH]1 [Compound 42b] have recorded inhibition at 2.5 µM that is 20% or more?
Reply: -1

Query: // query: C(=C1/CCc2ccccc21)/c1cccnc1 [Compound 1a, Hydrochloride]
Reply: -1

Query: Param item: N#Cc1ccc2c(c1)CC/C2=C/c1cnc[nH]1.O=C(O)C(=O)O [Compound 45b, oxalate]
Reply: -1

Query: Next entry: Brc1ccc2c(c1)CC/C2=C\c1cnc[nH]1.Cl [Compound 49a]
Reply: -1

Query: Check Clc1cccc2c1CC/C2=C\c1cccnc1 [Compound 25a, Hydrochloride] too.
Reply: -1

Query: Another: COc1ccc2c(c1)CCC/C2=C/c1cccnc1.Cl [Compound 13b, Hydrochloride]
Reply: -1

Query: Try this compound too: COc1ccc2c(c1)CC/C2=C\c1cccnc1 [Compound 11a, Hydrochloride]
Reply: 1

Query: Quick one: Fc1ccc2c(c1)CC/C2=C\c1cccc2cnccc12 [Compound 30a, Hydrochloride]
Reply: 1

Query: Another compound to check: C(=C1\CCCc2ccccc21)/c1cccnc1.Cl [Compound 3b, Hydrochloride]
Reply: 1

Query: Lookup Cl.Clc1ccc2c(c1)CC/C2=C\c1cnc[nH]1 [Compound 48a]
Reply: 1

Query: Subsequent entry: Fc1ccc2c(c1)CC/C2=C/c1ccncc1 [Compound 6b, Hydrochloride]
Reply: 1

Query: What do you get for Fc1ccc2c(c1)CC/C2=C/c1cccnc1 [Compound 5b, Hydrochloride] ?
Reply: -1

Query: For Fc1ccc2c(c1)CC/C2=C\c1cccnc1 [Compound 5a, Hydrochloride] then?
Reply: -1

Query: Subsequent entry: C(=C1\CCc2ccccc21)/c1ccncc1 [Compound 2b]
Reply: -1

Query: Subsequent entry: COc1ccc2c(c1)CC/C2=C/c1cccnc1 [Compound 11b, Hydrochloride]
Reply: 1

Query: Do the same for Fc1cccc2c1CC/C2=C\c1cccnc1 [Compound 24a, Hydrochloride] please
Reply: 1
